- test_target: Cytochrome P450 3A4 (Homo sapiens) (UniProt P08684)
- Sequence (P08684 whole entry, looked up): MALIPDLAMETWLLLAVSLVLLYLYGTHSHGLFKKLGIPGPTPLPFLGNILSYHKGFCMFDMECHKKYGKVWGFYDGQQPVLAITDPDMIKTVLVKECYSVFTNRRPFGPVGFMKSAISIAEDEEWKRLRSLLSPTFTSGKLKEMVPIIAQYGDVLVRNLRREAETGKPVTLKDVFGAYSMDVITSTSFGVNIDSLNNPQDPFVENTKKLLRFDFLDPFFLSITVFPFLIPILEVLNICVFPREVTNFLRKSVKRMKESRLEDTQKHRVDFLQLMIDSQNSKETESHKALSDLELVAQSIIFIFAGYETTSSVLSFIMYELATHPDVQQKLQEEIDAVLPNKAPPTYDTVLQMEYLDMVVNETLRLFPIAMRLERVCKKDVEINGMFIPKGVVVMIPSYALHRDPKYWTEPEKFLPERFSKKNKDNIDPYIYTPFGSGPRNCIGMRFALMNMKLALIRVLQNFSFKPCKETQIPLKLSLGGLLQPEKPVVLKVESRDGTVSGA
- test_method_notes: qHTS Assay for Activators of Cytochrome P450 3A4 (AID 885); further: nearly all actives have a fitted effect of over 65% in size
- measurement_conditions: recombinant CYP3A4, Luciferin-PPXE luminescence, 60 min; series mostly up to 57.1 µM
Activity calls are given as the source filed them. The call rests on the fitted dose curve; in most records, active means well fitted activation curve with a large enough effect; inconclusive means small, poorly fitted or top-dose-only effect; inactive means no such curve, though single readings can be large or run the other way.

compound: C[C@@H]1C=C[C@](Cc2ccccc2)(C(=O)NCC2CC2)N1C(=O)c1ccccc1
activity change, positive = activation: inactive
//
compound: CCCCC#CC1C=CC(OC(C)=O)C(COC(C)=O)O1 (stereo not drawn)
activity change, positive = activation: -63.9% [at 11.4 µM] (inactive)
//
compound: COC(=O)c1ccc(C(NC(=O)OCc2ccccc2)/C(C)=C/[C@@H](C)C(=O)NC2CCCCC2)cc1 (stereo partly drawn)
activity change, positive = activation: inactive
//
compound: C/C(CCN1CCCCc2nc(C)c(C)cc21)=N\O[C@@H](C)CN1CCCCc2nc(C)c(C)cc21
activity change, positive = activation: -81.7% [at 11.4 µM] (inactive)
//
compound: COC(=O)c1cccc(C#CC(NP(=O)(c2ccccc2)c2ccccc2)c2ccccc2)c1 (stereo not drawn)
activity change, positive = activation: inactive
//
compound: COc1ccc(COC(=O)N/N=C2/C[C@@H](O)[C@@H](O)[C@@H]3[C@@H]4C(=O)N(c5cccc(Oc6ccccc6)c5)C(=O)[C@H]4CC[C@H]23)cc1
activity change, positive = activation: -68.2% [at 11.4 µM] (inactive)
//
compound: COc1cccc(/C=C/C2=CC3(C)CC2(C)C(c2cccc(OC)c2)CC3=O)c1 (stereo not drawn)
activity change, positive = activation: -78.1% [at 11.4 µM] (inactive)
//
compound: CCC1=C(OC(=O)N(CC)CC)N2C(=O)OC(=NCc3ccccc3)[C@]2(C)[C@H]2C1=CC[C@H]1C(=O)NC(=O)[C@H]12
activity change, positive = activation: inactive

###

- test_target: Cytochrome P450 3A4 (Homo sapiens)
- test_method_notes: qHTS Assay for Activators of Cytochrome P450 3A4 (AID 885); further: nearly all actives have a fitted effect of over 65% in size
- measurement_conditions: recombinant CYP3A4, Luciferin-PPXE luminescence, 60 min; series mostly up to 57.1 µM
Calls of active or inactive are those of the source. Calls come from the whole dose curve; as a rule, active = well fitted activation curve with a large enough effect; inconclusive = small, poorly fitted or top-dose-only effect; inactive = no such curve, though single readings can be large or run the other way.

compound: COC(=O)NC(/C(C(=O)OC)=C(\C)NCc1ccccc1)c1ccc2ccccc2c1 (stereo not drawn)
test_target: Cytochrome P450 3A4 (Homo sapiens)
activity change, positive = activation: -55.9% [at 11.4 µM] (inactive)
--
compound: C[C@]1(C(=O)NCCCNc2ncc(C(F)(F)F)cc2Cl)C=C[C@@H](Cc2ccccc2)N1C(=O)c1ccccc1
test_target: Cytochrome P450 3A4 (Homo sapiens)
activity change, positive = activation: inactive
--
compound: COC(=O)c1ccc(C(NC(=O)OCc2ccccc2)/C(=C/[C@@H](C)C(=O)NCc2ccc(C)o2)c2cccnc2)cc1 (stereo partly drawn)
test_target: Cytochrome P450 3A4 (Homo sapiens)
activity change, positive = activation: inactive
--
compound: COC(=O)c1ccc(C(NC(=O)OCc2ccccc2)/C(F)=C/[C@@H](C)C(=O)N(C)Cc2cccnc2)cc1 (stereo partly drawn)
test_target: Cytochrome P450 3A4 (Homo sapiens)
activity change, positive = activation: inactive
--
compound: C=C(C)C(O)/C=C/c1ccc(OC)cc1 (stereo not drawn)
test_target: Cytochrome P450 3A4 (Homo sapiens)
activity change, positive = activation: -85.8% [at 11.4 µM] (inactive)
--
compound: CCC1=C(OC(=O)N(CC)CC)N2C(=O)OC(=NCC(=O)OC)[C@]2(Cc2ccccc2)[C@H]2C1=CC[C@H]1C(=O)N(CC(=O)OC)C(=O)[C@H]12
test_target: Cytochrome P450 3A4 (Homo sapiens)
activity change, positive = activation: inactive
--
compound: CCC1=C2CC[C@H]3C(=O)N(C)C(=O)[C@H]3[C@H]2[C@@]2(C)C(=NCc3ccccc3)OC(=O)N2C1=O
test_target: Cytochrome P450 3A4 (Homo sapiens)
activity change, positive = activation: inactive
--
compound: COc1ccc(OC2C=CC(C#Cc3ccc(C(C)(C)C)cc3)OC2CO)cc1 (stereo not drawn)
test_target: Cytochrome P450 3A4 (Homo sapiens)
activity change, positive = activation: -56.3% [at 11.4 µM] (inactive)

###

- test_method_notes: qHTS for Inhibitors of the vitamin D receptor (VDR): Hit Validation using a Texas Red Assay (AID 602201); further: potency means the concentration at half of the fitted maximal effect
- measurement_conditions: VDR coregulator binding, Texas Red fluorescence polarization, agonist-bound VDR ligand-binding domain; series mostly up to 57.1 µM
Inconclusive results are not listed. Active and inactive are the calls of the source. Calls follow the shape of the dose curve; as a rule, active = well fitted curve in the direction sought with a large enough effect; inconclusive = small, poorly fitted or top-dose-only effect, or another doubt; inactive = no such curve, though single readings can be large or run the other way.

compound: COCCN(CC(=O)NC1CCCCC1)C(=O)/C=C/C(=O)c1ccc(OC)cc1O
Potency: inactive
//
compound: c1ccc2c(C[n+]3csc4ccccc43)cccc2c1
Potency: 10 µM (active)
//
compound: NC(=O)c1ccc(N=C2C(=O)Nc3ccc([N+](=O)[O-])cc32)cc1
Potency: 1.41 µM (active)
//
compound: Cc1cc(C)nc(S/C=C/C(=O)c2ccccc2F)n1
Potency: 7.94 µM (active)
//
compound: O=[N+]([O-])c1c(NCCCO)cc(Sc2ccc(Cl)cc2)c2nonc12
Potency: 15.8 µM (active)
//
compound: O=C(/C=C/c1cccnc1)c1ccc([N+](=O)[O-])cc1
Potency: 3.16 µM (active)
//
compound: CCCNC(=O)c1nnsc1S(=O)c1ccc(Cl)cc1 (stereo unspecified)
Potency: 3.16 µM (active)
//
compound: O=C(O)CN1C(=O)/C(=C\c2cc(Br)ccc2OCc2ccc(F)cc2)SC1=S
Potency: inactive
//
compound: Cc1nnc(NC(=O)c2nc(S(=O)(=O)Cc3ccccc3)ncc2Cl)s1
Potency: 22.4 µM (active)
//
compound: O=C(Nc1ccccc1)c1nc(S(=O)(=O)Cc2ccccc2F)ncc1Cl
Potency: 2.82 µM (active)
//
compound: Cc1sc(C(C2C(=O)CC(C)(C)CC2=O)C2C(=O)CC(C)(C)CC2=O)cc1[N+](=O)[O-]
Potency: 7.94 µM (active)

###

- System: CP191
- test_method_notes: qHTS profiling for inhibitors of Plasmodium falciparum proliferation (AID 504749);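 further: 0% = DMSO vehicle and full inhibition = artemisinin control; nearly all actives have a fitted effect of over 60% in size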
- measurement_conditions: P. falciparum in erythrocytes, SYBR Green DNA, 72 h; series mostly up to 28.7 µM
Inconclusive results are not listed. The source made the active and inactive calls. The call rests on the fitted dose curve; in most records, active means well fitted inhibition curve with a large enough effect; inconclusive means small, poorly fitted or top-dose-only effect; inactive means flat fitted curve, though single readings scatter. Numbered stars: 1 amine (or outer) side, 2 acyl side, 3 side chain; on linkers, the order of the positions; unused ones are H or OH. Bridge positions count the residues as written; N and C are the ends. Square brackets hold non-standard residues; d marks the D form. Peptide text beside a SMILES is read from it. * marks the point of attachment. ξ: configuration not given here. ΔAla(Z-3-ureido) = NC(=O)N/C=C(\N)C(=O)O; X2 = NC1=NC(O)CC(C(N[*:1])C(=O)[*:2])N1; ξβ3hOrn = NCCCC(N)CC(=O)*; Dap = NC[CH](N)C(=O)O

compound: CNCC(=O)NC(CCCN=C(N)N)C(=O)NC(C(=O)NC(Cc1ccc(O)cc1)C(=O)NC(C(=O)NC(Cc1cnc[nH]1)C(=O)N1CCCC1C(=O)NC(C)C(=O)O)C(C)C)C(C)C (stereo not drawn)
outcome: inactive
//
compound: NCCCC(N)CC(=O)NC1CNC(=O)C(C2CC(O)N=C(N)N2)NC(=O)/C(=C/NC(N)=O)NC(=O)C(CO)NC(=O)C(CO)NC1=O (stereo not drawn) (ξβ3hOrn-[Dap]SS[ΔAla(Z-3-ureido)][X2]; lactam 1-C; configuration not given here)
outcome: inactive
//
compound: CCC1NC(=O)C(NC(=O)c2ncccc2O)C(C)OC(=O)C(c2ccccc2)NC(=O)C2CC(=O)CCN2C(=O)C(Cc2ccccc2)N(C)C(=O)C2CCCN2C1=O (stereo not drawn)
outcome: inactive

###

- test_target: Nuclear receptor subfamily 1 group I member 2 (Rattus norvegicus) (UniProt Q9R1A7)
- Sequence (Q9R1A7 whole entry, looked up): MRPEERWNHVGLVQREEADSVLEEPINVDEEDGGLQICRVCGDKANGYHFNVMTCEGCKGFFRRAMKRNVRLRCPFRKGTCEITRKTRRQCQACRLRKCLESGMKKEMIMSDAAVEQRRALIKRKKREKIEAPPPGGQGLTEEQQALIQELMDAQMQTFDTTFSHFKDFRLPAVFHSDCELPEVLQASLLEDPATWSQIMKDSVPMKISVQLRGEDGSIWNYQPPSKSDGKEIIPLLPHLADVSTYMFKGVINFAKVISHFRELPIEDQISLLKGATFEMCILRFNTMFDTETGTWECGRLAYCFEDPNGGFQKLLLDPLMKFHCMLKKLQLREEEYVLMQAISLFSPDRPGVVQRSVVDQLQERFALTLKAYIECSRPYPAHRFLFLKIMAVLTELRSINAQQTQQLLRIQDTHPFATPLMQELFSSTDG
- test_method_notes: qHTS assay for small molecule activators of the rat pregnane X receptor (rPXR) signaling pathway (AID 651751); further: 0% is about no effect
- measurement_conditions: rPXR reporter cells, luciferase (One-Glo), 24 h
parameter_measured: max response (%)

compound: CC(=O)OC1CCC(C(C)(C)C)CC1 (centres undefined)
test_result: 4.95

compound: CCCCN(CCCC)CCCC
test_result: -4.71

compound: CCCCCCCOC(=O)c1ccccc1C(=O)OCCCCCCC
test_result: -1.98

compound: CCCCOC(=O)/C=C\C(=O)OCCCC
test_result: 0.138

compound: BrC1CCC(Br)C(Br)CCC(Br)C(Br)CCC1Br (centres undefined)
test_result: 0.315

compound: CCCCCCCCCCCC[N+](C)(C)C
test_result: -11.2

compound: CSc1ccc(Cl)cc1
test_result: -1.44

compound: CCOCCOCCOCC
test_result: 1.72

compound: CCCOC(=O)c1ccc(C(=O)OCCC)nc1
test_result: -3.51

compound: CCCCC(CC)COC(=O)/C=C\C(=O)OCC(CC)CCCC (centres undefined)
test_result: -1.19

compound: CC(C)(N=C=O)c1cccc(C(C)(C)N=C=O)c1
test_result: 4.49

compound: Brc1ccc(Br)c(Br)c1
test_result: -1.74

compound: Cc1ccc(N)c(S(=O)(=O)O)c1
test_result: 3.5

compound: Nc1ccc(Nc2ccccc2)cc1
test_result: 8.87

compound: CCC/C(=N\OCC)C1=C(O)CC(O)(CC(C)S(=O)(=O)CC)CC1=O (centres undefined)
test_result: 2.09

compound: Nc1nc(N)nc(-c2ccccc2)n1
test_result: 2.49

compound: CC(C)CCCCCCc1ccc(OCCOCCO)cc1
test_result: -16.1

compound: Cl[Si](Cl)(Cl)c1ccccc1
test_result: 1.77

compound: Nc1cc(Cl)c(O)c(Cl)c1
test_result: 0.356

compound: C=C(C)C(=O)OCC(CC)(COC(=O)C(=C)C)COC(=O)C(=C)C
test_result: -1.04

compound: COC(OC)(C(=O)c1ccccc1)c1ccccc1
test_result: 3.76

compound: NN(c1ccccc1)c1ccccc1
test_result: 1.92

compound: CCCC/C=C\CCCCCCCCO
test_result: 12.2

compound: CC(C)(C)c1cc(C(C)(C)C)c(O)c(C(C)(C)C)c1
test_result: -4.2

compound: O=C(O)CCCCCCCCCCC(=O)O
test_result: 0.83

compound: CC1(C)C(=O)NC(=O)N1CO
test_result: 1.33

compound: CCOC(=O)C(C)Oc1ccc(Oc2nc3ccc(Cl)cc3o2)cc1 (centres undefined)
test_result: -9.57

compound: CCCCC(CC)COC(=O)CS (centres undefined)
test_result: 0.0458

compound: CCC(O)OCCCOC (centres undefined)
test_result: 1.86

compound: CCCCC/C=C\C/C=C\CCCCCCCC(=O)OC
test_result: -0.654

compound: CCCCCCCCCC(C)=O
test_result: -2.12

compound: CC(C)(C)c1cccc(C(C)(C)C)c1O
test_result: 0.577

compound: C/C=C/C/C=C\CCCCCCCCOC(C)=O
test_result: 0.0563

compound: O=C1NC(=O)C(Cc2ccc(OCCN3COc4ccccc4C3=O)cc2)S1 (centres undefined)
test_result: 1.08

compound: COC(=O)c1ccc(C(=O)OC)cc1
test_result: 2.11

compound: NCCCCCCCCCCC(=O)O
test_result: 1.01

compound: C=C(C)C(=O)OCCN(C)C
test_result: 5.37

compound: OC1CCCCCCCCCCC1
test_result: -3.86

compound: CCCCCCCC/C=C\CCCCCCCC(=O)OC
test_result: 0.29

compound: CC1COCc2cc3c(cc21)C(C)(C)C(C)C3(C)C (centres undefined)
test_result: 3.75

compound: CCOC(=O)c1ccccc1C
test_result: 1

compound: NNS(=O)(=O)c1ccc(Oc2ccc(S(=O)(=O)NN)cc2)cc1
test_result: 8.65

compound: C[Si](Cl)(Cl)c1ccccc1
test_result: -3.28

compound: CCCC/C=C/CCCCO
test_result: -2.13

compound: Brc1ccc(Oc2ccc(Br)cc2)cc1
test_result: -1.1

compound: C#CCOC(=O)[C@@H](C)Oc1ccc(Oc2ncc(Cl)cc2F)cc1
test_result: -2.33

compound: CCCC[O][Al]([O]CCCC)[O]CCCC
test_result: 2.39

compound: CCCCCCCCCCCCCC(=O)OC
test_result: 2.49

compound: Cc1ccc(Cl)cc1Cl
test_result: 1.69

compound: S=C([S-])NCCNC(=S)[S-].S=C([S-])NCCNC(=S)[S-].[Mn+2].[Zn+2]
test_result: -11.1

compound: CCOc1ccc(NC(=O)OC(C)C)cc1OCC
test_result: 10.3

compound: Nc1cc(Cl)nc(C(=O)O)c1Cl
test_result: 2.09

compound: O=S(=O)(O)c1cc(S(=O)(=O)O)c2c(N=Nc3ccccc3)c(O)ccc2c1
test_result: 3.04

compound: O=C1CCCC/C=C/CCCCCCCCCO1
test_result: -0.578

compound: O=C(Cl)c1cc(Cl)cc(Cl)c1
test_result: 2.44

compound: CCC(=O)OCCc1ccccc1
test_result: -2.51

compound: CO[Si](CCCNCCN)(OC)OC
test_result: 4.5

compound: C=C(C)C(=O)OCCCCCCCCCCCC
test_result: 1.96

compound: CCCOC(=O)NCCCN(C)C
test_result: 8.36

Value source: PubChem BioAssay (NCATS)
